Biological target: aromatic amino acid decarboxylase (AADC), P330L variant (Homo sapiens, UniProt P20711, P330L)
Sequence (P20711 whole entry P330L): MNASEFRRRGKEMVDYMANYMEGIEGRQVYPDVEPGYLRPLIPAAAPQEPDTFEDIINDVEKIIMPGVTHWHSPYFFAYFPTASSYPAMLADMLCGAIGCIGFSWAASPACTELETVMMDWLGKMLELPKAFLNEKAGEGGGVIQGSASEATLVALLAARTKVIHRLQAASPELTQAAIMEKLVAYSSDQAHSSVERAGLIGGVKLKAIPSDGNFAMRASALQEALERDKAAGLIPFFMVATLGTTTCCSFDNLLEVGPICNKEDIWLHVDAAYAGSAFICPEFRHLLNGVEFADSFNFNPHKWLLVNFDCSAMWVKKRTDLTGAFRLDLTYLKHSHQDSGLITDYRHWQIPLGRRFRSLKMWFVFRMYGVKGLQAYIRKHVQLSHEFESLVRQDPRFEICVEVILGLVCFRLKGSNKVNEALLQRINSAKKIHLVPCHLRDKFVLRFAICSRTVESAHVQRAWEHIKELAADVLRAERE
Assay: intrinsic fluorescence quenching titration of apoenzyme (KD(PLP))
experimental endpoint: Kd (nM)
Report the value in nM with no unit label.

Recorded Kd (compound Cc1ncc(COP(=O)(O)O)c(C=O)c1O [PLP, pyridoxal 5'-phosphate] ): 123
